Data origin: patent US9023865B2

# system-tested: Active Human ERK2 (hERK2) (Homo sapiens (Human), UniProt P28482)
# Sequence (P28482 whole entry): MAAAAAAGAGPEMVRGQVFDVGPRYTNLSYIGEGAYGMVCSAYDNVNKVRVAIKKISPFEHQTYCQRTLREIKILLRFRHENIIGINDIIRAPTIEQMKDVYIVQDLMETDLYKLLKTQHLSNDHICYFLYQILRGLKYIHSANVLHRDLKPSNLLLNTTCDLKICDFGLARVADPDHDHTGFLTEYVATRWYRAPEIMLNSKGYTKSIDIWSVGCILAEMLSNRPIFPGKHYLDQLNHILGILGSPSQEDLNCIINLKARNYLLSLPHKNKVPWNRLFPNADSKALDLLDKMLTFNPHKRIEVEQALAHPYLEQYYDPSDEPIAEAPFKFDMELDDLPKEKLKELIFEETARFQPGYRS
# procedure-details: Active Human ERK2 (hERK2) Activity Assay (IMAP-FP)
# Assay type: biochemical
# experimental-context: phosphorylated active hERK2, 30 μM ATP; average; read-out: ERK 2 Human average IC50
parameter-measured: IC50

Worked cases, IC50 given:
>  <molecule>
O=C(NCCC1CCOC1)Nc1cc2[nH]nc(-c3ccc(F)cc3)c2cn1 (centres unmarked)

>  <system-tested>
Active Human ERK2 (hERK2) (Homo sapiens (Human), UniProt P28482)

>  <IC50>
1.68 nM

$$$$
>  <molecule>
Cc1cc(-c2n[nH]c3cc(NC(=O)NCc4nccc5ccccc45)ncc23)ccn1

>  <system-tested>
Active Human ERK2 (hERK2) (Homo sapiens (Human), UniProt P28482)

>  <IC50>
2.76 nM

$$$$
>  <molecule>
Cc1cc(-c2n[nH]c3cc(NC(=O)N[C@H](C)c4ccccc4)ncc23)no1

>  <system-tested>
Active Human ERK2 (hERK2) (Homo sapiens (Human), UniProt P28482)

>  <IC50>
32.4 nM

$$$$
>  <molecule>
Cc1cc(-c2n[nH]c3cc(NC(=O)NCc4nnc(C)s4)ncc23)ccn1

>  <system-tested>
Active Human ERK2 (hERK2) (Homo sapiens (Human), UniProt P28482)

>  <IC50>
33.7 nM

$$$$
>  <molecule>
CCOC(=O)CCc1n[nH]c2cc(NC(=O)NCc3ccccc3)ncc12

>  <system-tested>
Active Human ERK2 (hERK2) (Homo sapiens (Human), UniProt P28482)

>  <IC50>
39.8 nM

$$$$
>  <molecule>
Cc1cc(-c2n[nH]c3c(F)c(NC(=O)N[C@H](C)c4ccccc4)ncc23)ccn1

>  <system-tested>
Active Human ERK2 (hERK2) (Homo sapiens (Human), UniProt P28482)

>  <IC50>
0.235 nM

$$$$
>  <molecule>
N#Cc1cccc(-c2n[nH]c3cc(NC(=O)NCc4ccc(F)cc4)ncc23)c1

>  <system-tested>
Active Human ERK2 (hERK2) (Homo sapiens (Human), UniProt P28482)

>  <IC50>
5.41 nM

$$$$

## Task Record request: IC50 value, item Cc1cc(-c2n[nH]c3cc(NC(=O)NC4CCCC(Oc5cccc(F)c5)C4)ncc23)ccn1 (centres unmarked) [Example 658]
## Result 66.9 nM

###

Listed molecules paired with reported pIC50
# system-tested: Active Human ERK2 (hERK2) (Homo sapiens (Human))
# procedure-details: Active Human ERK2 (hERK2) Activity Assay (IMAP-FP)
# Format: biochemical
# experimental-context: phosphorylated active hERK2, 30 μM ATP; average; read-out: ERK 2 Human average IC50
As a rule, pIC50 stands for the negative log10 of the concentration, concentration in M.

Worked cases, pIC50 given:
>  <molecule>
COC[C@@H](NC(=O)Nc1ncc2c(-c3ccnc(F)c3)n[nH]c2c1F)c1ccccc1 [Example 543]

>  <pIC50>
9.56

$$$$
>  <molecule>
Cc1cc(-c2n[nH]c3cc(NC(=O)N[C@@H]4CCN(C)C4)ncc23)ccn1 [Example 596]

>  <pIC50>
8.31

$$$$
>  <molecule>
Cc1cc(-c2n[nH]c3cc(NC(=O)N[C@@H](c4ccccc4)[C@H]4CCCO4)ncc23)ccn1 [Example 553]

>  <pIC50>
9.59

$$$$
>  <molecule>
COc1cncc(-c2n[nH]c3cc(NC(=O)N[C@H](C)c4ccc(F)cc4)ncc23)c1 [Example 253]

>  <pIC50>
8.50

$$$$

## Task Record request: pIC50 value, item COCCCc1n[nH]c2cc(NC(=O)N[C@H](C)c3ccccc3)ncc12 [Example 21]
## Result 8.60

## Task Subsequent entry: [2H]C([2H])([2H])OC[C@@H](NC(=O)Nc1cc2[nH]nc(C3CC3)c2cn1)c1ccccc1 [Example 161]
## Result 8.24

## Task Subsequent entry: Cc1cc(-c2n[nH]c3cc(NC(=O)NCc4c[nH]nn4)ncc23)ccn1 [Example 431]
## Result 8.60

## Task Subsequent entry: COCCNC(=O)Nc1cc2[nH]nc(-c3ccc(C#N)cc3)c2cn1 [Example 624]
## Result 8.36
